pIC50: −log10 of the molar value.
Collected literature values of pIC50 measured for Tyrosine-protein kinase Yes (Homo sapiens).
resultType: pIC50

1. CC(C)(NC(=O)CCc1ccc(OCC(=O)O)c(P(=O)(O)O)c1)c1ccc(OCC2CCCCC2)c(C(N)=O)c1 | 3.52
2. CCOP(=O)(O)c1cc(CC(NC(C)=O)C(=O)N[C@@H](C)c2ccc(OCC3CCCCC3)c(C(N)=O)c2)ccc1OCC(=O)O (stereo partly drawn) | 3.81
3. Nc1nccn2c([C@@H]3CCCN(C4CCOCC4)C3)nc(-c3ccc(C(=O)Nc4cc(C(F)(F)F)ccn4)cc3F)c12 | 7.49
4. Cn1cc(-c2cnc3ccc(NC(=O)NC(C)(C)C)nc3c2)cn1 | 5.10

###

Collected literature values of pIC50 measured for UniProt P07947.
pIC50: −log10 of the molar value.
resultType: pIC50

1) CC1(C)OC(=O)N2C[C@H](c3nc(-c4ccc(C(=O)Nc5cc(C(F)(F)F)ccn5)cc4)c4c(N)nccn34)CC[C@H]21 | 7.52
2) COc1cc(-c2cnc3ccc(NC(=O)NC(C)(C)C)nc3c2)ccc1O | 4.37
3) CC(=O)NC(Cc1ccc(OCC(=O)O)c(P(=O)(O)O)c1)C(=O)N[C@@H](C)c1ccc(OCC2CCCCC2)c(C(N)=O)c1 (stereo partly drawn) | 3.96
4) Cc1cc(-c2cc(O)ccc2Cl)cc2nnc(Nc3ccc(OCCN4CCCC4)cc3)nc12 | 9.52
5) CCc1ccc(-c2ccc3c(c2)-c2n[nH]cc2S(=O)(=O)N3C)cc1 | 5.74
6) CC1(C(=O)N2CCC[C@@H](c3nc(-c4ccc(C(=O)Nc5cc(C(F)(F)F)ccn5)cc4F)c4c(N)nccn34)C2)COC1 | 7.37
7) CCCCn1c(-c2ccccc2C)cn2c3c(=O)[nH]c(=O)n(C)c3nc12 | 6.55

###

Collected literature values of pIC50 measured for Tyrosine-protein kinase Yes (Homo sapiens).
pIC50: −log10 of the molar value.
Would you mind labelling by pIC50? At or over 7 is true, under is false.

1) Nc1nc2cc(-c3nn(CC4OCCO4)c4ncnc(N)c34)ccc2o1 | false
2) N#CCNC(=O)c1ccc(-c2ccnc(Nc3ccc(N4CCOCC4)cc3)n2)cc1 | false
3) CC(C)(C)NS(=O)(=O)c1cncc(-c2ccn3nc(N)nc3c2)c1 | false
4) Cn1cc(-c2cnc3ccc(NC(=O)NCCc4ccccc4)nc3c2)cn1 | false
5) Nc1nccn2c([C@H]3CN(C4CCOCC4)CCO3)nc(-c3ccc(C(=O)Nc4cc(C(F)(F)F)ccn4)cc3F)c12 | true
6) CCOC(Cn1nc(-c2ccc3oc(N)nc3c2)c2c(N)ncnc21)OCC | false
7) CN(C)S(=O)(=O)c1ccc2c(c1)/C(=C/c1cc3c([nH]1)CCCC3)C(=O)N2 | true
8) CCNC(=O)Nc1ccc2ncc(-c3ccc(OC)cc3)cc2n1 | false
9) Nc1nccn2c([C@@H]3CC[C@H]4CCC(=O)N4C3)nc(-c3ccc(C(=O)Nc4cc(C(F)(F)F)ccn4)cc3)c12 | true
10) COCC(=O)N1CCC[C@@H](c2nc(-c3ccc(C(=O)Nc4cc(C(F)(F)F)ccn4)cc3F)c3c(N)nccn23)C1 | true
11) CC(C)C(=O)N1CCC[C@@H](c2nc(-c3ccc(C(=O)Nc4cc(C(F)(F)F)ccn4)cc3F)c3c(N)nccn23)C1 | false
12) CCOC(Cn1nc(-c2cnc3[nH]ccc3c2)c2c(N)ncnc21)OCC | false

###

Collected literature values of IC50 measured for Tyrosine-protein kinase Yes (Homo sapiens).
resultType: IC50

1. CC(=O)NC(Cc1ccc(OCC(=O)O)c(P(=O)(O)O)c1)C(=O)Nc1ccc(OCC2CCCCC2)c(C(N)=O)c1 (centres undefined) | > 500 µM
2. COC(Cn1nc(-c2ccc3oc(N)nc3c2)c2c(N)ncnc21)OC | > 100 µM
3. COc1ccc(C(=O)NC[C@@H](O)CO)cc1/C=C/c1ccc(Cl)cc1 | > 50 µM
4. CC(C)(NC(=O)CCc1ccc(OCn2cnnn2)c(P(=O)(O)O)c1)c1ccc(OCC2CCCCC2)c(C(N)=O)c1 | > 500 µM
